# PROTOCOL: Oral bioavailability in Sprague-Dawley rat at 5 mg/kg measured up to 24 hrs by HPLC-MS/MS analysis
# Assay type: ADME, organism-based
# ASSAY CONDITIONS: in vivo
Positions of bridges follow the written chain, without caps; N, C: chain ends. Non-standard residues stand in square brackets, D forms with d. Residues, ends and D or L forms follow the SMILES beside them. NMeNle = CCCC[C@H](NC)C(=O)O; Nle = CCCC[C@H](N)C(=O)O
MEASURE: bioavailability (%)
Answers are plain numbers, in %.

| COMPOUND | SCALE UNIT | RECORDED NUMBER |
| --- | --- | --- |
| CCCC[C@@H]1NC(=O)[C@H](CCCC)N(C)C(=O)[C@@H]2CCCN2C(=O)[C@H](CCCC)N(C)C(=O)[C@H](Cc2ccccc2)NC(=O)CSC[C@@H](C(=O)NC)NC(=O)[C@H](CCCC)N(C)C1=O ({CH2CO}-F[NMeNle]P[NMeNle][Nle][NMeNle]C-NHMe; thioether N-7) | % | 86 |
| CCCC[C@@H]1NC(=O)[C@H](CCCC)N(C)C(=O)[C@H](CCCC)NC(=O)[C@H](CCCC)N(C)C(=O)[C@H](CCCC)NC(=O)[C@H](CCCC)N(C)C(=O)[C@@H](Cc2ccccc2)NC(=O)CSC[C@@H](C(=O)NC)NC1=O | % | 54 |
| CCCC[C@@H]1NC(=O)[C@H](Cc2ccccc2)NC(=O)CSC[C@H](C(=O)NC)NC(=O)[C@H](CCCC)N(C)C(=O)[C@H](CCCC)NC(=O)[C@H](CCCC)N(C)C1=O | % | 19 |

# next compound below
Input line: Query bioavailability for CCCC[C@@H]1NC(=O)[C@H](Cc2ccccc2)N(C)C(=O)CSC[C@H](C(=O)NC)N(C)C(=O)[C@H](CCCC)NC(=O)[C@H](CCCC)N(C)C(=O)C2CCCN2C1=O (stereo not given in full)
Output line: 6
